Experiment: Cell viability assay in normal mononuclear cells
Format: cell-based, human
Settings: human
readoutLabel: IC50 at 48 h

Note to self: IC50 at 48 h recorded for C=C(C)C1CCC2(C(=O)O)CCC3(C)C(CCC4C5(C)CCC(O)C(C)(CO)C5CCC43C)C12 (stereo not drawn) [Compound T1, 3α,24-dihydroxylup-20(29)-en-28-oic acid] was > 200 µM

Note to self: IC50 at 48 h recorded for C=C(C=O)C1CCC2(C(=O)O)CCC3(C)C(CCC4C5(C)CCC(OC)C(C)(CO)C5CCC43C)C12 (stereo not shown) was 10.8 µM

Note to self: IC50 at 48 h recorded for C=C(C=O)[C@@H]1CC[C@]2(C(=O)O)CC[C@]3(C)C(CCC4[C@@]5(C)CC[C@@H](O)[C@@](C)(CO)C5CC[C@]43C)C12 (stereo partly shown) was > 200 µM

Note to self: IC50 at 48 h recorded for C=C(C=O)C1CCC2(C(=O)O)CCC3(C)C(CCC4C5(C)CCC(O)C(C)(CO)C5CCC43C)C12 (stereo not shown) was > 200 µM

Every entry's value here was drawn from paper PMC12348585.
